B1: ANKRD9 (parent)
chain: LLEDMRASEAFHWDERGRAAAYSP

# Variants of: B1
# test: protein stability index of a GFP-peptide fusion (GPS, HEK-293T) (PSI 1-6); higher = more stable;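 also: lentivirally expressed fusions sorted by FACS into six bins by GFP to DsRed ratio, PSI derived from sequencing read proportions per bin multiplied by bin number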
# recorded_conditions: c terminus: a fixed tail appended
value_kind: protein stability index
Answers are plain numbers.

Some solved cases for reference:
[
  {
    "seq": "LLEDMRASEAFHWDERGRAKAYSP [A20K]",
    "protein stability index": 1.62
  },
  {
    "seq": "LLEDMRAFEAFHWDERGRAAAYSP [S8F]",
    "protein stability index": 3.31
  },
  {
    "seq": "LLEDMRASEAFHWDERGRAAAYKP [S23K]",
    "protein stability index": 2.05
  }
]

# batch: return protein stability index for each of the 5 variants below
1. LCEDMRASEAFHWDERGRAAAYSP [L2C]
2. LLEDMRASEAFHWDERGQAAAYSP [R18Q]
3. LLEDMIASEAFHWDERGRAAAYSP [R6I]
4. LLEDMRASEAFHIDERGRAAAYSP [W13I]
5. LLEDMRASEAPHWDERGRAAAYSP [F11P]

4.06
1
2.32
1.87
2.5

# batch: return protein stability index for each of the 8 variants below
1. LLKDMRASEAFHWDERGRAAAYSP [E3K]
2. LLEDMRASEAFHWDERVRAAAYSP [G17V]
3. LLEDMRASAAFHWDERGRAAAYSP [E9A]
4. LLEDMRASEAFHWLERGRAAAYSP [D14L]
5. LLEDMRASEAFHWDERGRSAAYSP [A19S]
6. LLEDMRASEAFHWDERGRKAAYSP [A19K]
7. LLEDMRASEAFHWDERGRAAAYMP [S23M]
8. LLEDMRASEAFHWDERGYAAAYSP [R18Y]

1: 2.49; 2: 3.02; 3: 3.12; 4: 2.09; 5: 2.23; 6: 2.27; 7: 2.68; 8: 1.71

# batch: return protein stability index for each of the 2 variants below
1. LLEDMRISEAFHWDERGRAAAYSP [A7I]
2. LLEDMRASEAFHWDERGRAAADSP [Y22D]

[1.96, 2.2]

# batch: return protein stability index for each of the 6 variants below
1. LLEDMRASEAFHWDERHRAAAYSP [G17H]
2. LLEDMRASEAQHWDERGRAAAYSP [F11Q]
3. LREDMRASEAFHWDERGRAAAYSP [L2R]
4. LLEDMRASEAFHWDERGIAAAYSP [R18I]
5. LLEDMRASEAFHDDERGRAAAYSP [W13D]
6. LLEDMEASEAFHWDERGRAAAYSP [R6E]

1.44
2.32
3.27
1.65
2.24
3.96

# batch: return protein stability index for each of the 4 variants below
1. LLEDMRASEAYHWDERGRAAAYSP [F11Y]
2. LLEDMWASEAFHWDERGRAAAYSP [R6W]
3. LLEDMRASEVFHWDERGRAAAYSP [A10V]
4. LLEDMRASEAFHWDEVGRAAAYSP [R16V]

1. 2.03
2. 1.87
3. 1.5
4. 1.79

# batch: return protein stability index for each of the 2 variants below
1. LLIDMRASEAFHWDERGRAAAYSP [E3I]
2. LLEEMRASEAFHWDERGRAAAYSP [D4E]

1.85
2.03

# batch: return protein stability index for each of the 8 variants below
1. LLEDMRASEAFHWDERERAAAYSP [G17E]
2. LLEDMRASEAFHWDERGRAAAISP [Y22I]
3. LLEDMRASEAFHWDERGRAYAYSP [A20Y]
4. LLEDMNASEAFHWDERGRAAAYSP [R6N]
5. FLEDMRASEAFHWDERGRAAAYSP [L1F]
6. LLEDMRASEAFHWYERGRAAAYSP [D14Y]
7. LLCDMRASEAFHWDERGRAAAYSP [E3C]
8. LLEDMRASEAFHGDERGRAAAYSP [W13G]

1. 2.31
2. 2.17
3. 1.85
4. 2.97
5. 3.36
6. 1.98
7. 1.51
8. 2.61

# batch: return protein stability index for each of the 2 variants below
1. LLEDMRASEAFHWDERGRAAACSP [Y22C]
2. LLEDMRASEAFHFDERGRAAAYSP [W13F]

[1.8, 2.05]
